Target: Proteasome subunit beta type-8 (Homo sapiens, UniProt P28062)
Sequence (P28062 whole entry): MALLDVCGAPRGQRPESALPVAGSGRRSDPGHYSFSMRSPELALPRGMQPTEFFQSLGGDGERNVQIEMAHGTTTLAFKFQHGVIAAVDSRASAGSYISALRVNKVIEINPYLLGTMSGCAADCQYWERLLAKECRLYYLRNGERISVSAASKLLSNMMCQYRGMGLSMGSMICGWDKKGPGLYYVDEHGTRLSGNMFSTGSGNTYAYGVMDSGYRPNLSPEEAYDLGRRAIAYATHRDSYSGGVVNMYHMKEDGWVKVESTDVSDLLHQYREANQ
Test: Inhibition of human 20S immunoproteasome beta 5 subunit chymotrypsin-like activity using fluorogenic peptide Ac-WLA-AMC as substrate in presence of PA28alpha incubated for 1 to 2 hrs by fluorescence microplate reader assay
Catalogue of pIC50 readings, one per entry.
Remember the convention: pIC50 equals -log10 of concentration in molar.

INSERT INTO assay_data (given_smiles, reading) VALUES
  ('Cc1ccc(S(=O)(=O)N[C@@H](CC(=O)NCC(C)(C)C)C(=O)N[C@@H](Cc2ccccc2)C(=O)N[C@@H](CC(C)C)B(O)O)cc1', 8.30),
  ('CC(=O)N1CCC[C@H]1C(=O)N[C@@H](C)C(=O)N[C@@H](CC(C)C)B(O)O', 7.20),
  ('CC(C)C[C@H](NC(=O)[C@H](Cc1ccccc1)NC(=O)Cc1ccc(O)cc1)B(O)O', 8.89);

Kindly review the next compound as well.
(Q) Field: pIC50 (Proteasome subunit beta type-8 (Homo sapiens, UniProt P28062)). Entry: `CC(=O)N1CCC[C@@H]1C(=O)N[C@@H](C)C(=O)N[C@@H](Cc1ccccc1)B(O)O`
(A) 7.55

====

Biological target: Proteasome subunit beta type-9 (Homo sapiens)
Sequence (P28065 whole entry): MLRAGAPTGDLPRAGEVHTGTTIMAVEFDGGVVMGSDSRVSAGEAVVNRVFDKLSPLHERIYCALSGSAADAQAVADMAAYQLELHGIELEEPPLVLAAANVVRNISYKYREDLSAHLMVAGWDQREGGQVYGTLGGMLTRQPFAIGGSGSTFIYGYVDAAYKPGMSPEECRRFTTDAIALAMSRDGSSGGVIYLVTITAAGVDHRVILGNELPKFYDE
Assay: Inhibition of human 20S immunoproteasome beta 1 subunit caspase-like activity using fluorogenic peptide Ac-nLPnLD-AMC as substrate in presence of PA28alpha incubated for 1 to 2 hrs by fluorescence microplate reader assay
Catalogue of IC50 readings, one per entry.
Please respond with the number in nM and leave the unit unwritten.

(Q) Recorded IC50 for `Cc1ccc(S(=O)(=O)N[C@@H](CC(=O)NCC(C)(C)C)C(=O)N[C@@H](Cc2ccccc2)C(=O)N[C@@H](CC(C)C)B(O)O)cc1` , please?
(A) 29

(Q) Now consider `CC(=O)N1CCC[C@H]1C(=O)N[C@@H](C)C(=O)N[C@@H](CC(C)C)B(O)O` .
(A) 13

(Q) Now consider `CC(=O)N1CCC[C@@H]1C(=O)N[C@@H](C)C(=O)N[C@@H](Cc1ccccc1)B(O)O` .
(A) 8

(Q) Now consider `CC(C)C[C@H](NC(=O)[C@H](Cc1ccccc1)NC(=O)Cc1ccc(O)cc1)B(O)O` .
(A) 5

====

Biological target: Proteasome Macropain subunit MB1 (Homo sapiens, UniProt P28074)
Sequence (P28074 whole entry): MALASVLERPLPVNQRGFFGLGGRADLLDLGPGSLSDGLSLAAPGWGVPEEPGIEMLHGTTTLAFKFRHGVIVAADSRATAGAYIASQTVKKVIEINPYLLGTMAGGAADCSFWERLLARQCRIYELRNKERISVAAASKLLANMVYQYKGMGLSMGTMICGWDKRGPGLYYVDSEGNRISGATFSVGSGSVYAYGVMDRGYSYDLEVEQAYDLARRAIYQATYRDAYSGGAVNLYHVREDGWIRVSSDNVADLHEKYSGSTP
Assay: Binding affinity to human 20S constitutive proteasome beta 5 subunit assessed as equilibrium constant using fluorogenic peptide Ac-WLA-AMC as substrate in presence of PA28alpha by fluorescence based microplate reader assay
measurement kind: Ki (nM)
Please respond with the number in nM and leave the unit unwritten.

(Q) Recorded Ki for `CC(C)C[C@H](NC(=O)[C@H](Cc1ccccc1)NC(=O)Cc1ccc(O)cc1)B(O)O` , please?
(A) 0.13
